Tested on: MHC-I expression by COLO 205 cells
Assay notes: cells
Format: cell-based, human
Condition context: Homo sapiens, COLO 205, 48 h, MHC-I expression, COLO 205 cells, compounds at 35 μM, 48 hours, flow cytometry (W6/32); read-out: Induction Fold
Exercise: state measured fold induction at 35 µM for each of the molecules provided.
One number for each entry.

Below: 5 molecules and their reported fold induction at 35 µM.
CC(C)CCCCn1cc(C(=O)C2C(C)(C)C2(C)C)c2ccccc21 : 1.75
CC(C)(C)C(NC(=O)c1cc(-c2ccc(F)cc2)nn1CCCCCF)C(N)=O (stereo not drawn) : 2.33
O=C(Oc1cccc2ccccc12)c1nn(CCCCCF)c2ccccc12 : 2.01
COC(=O)[C@@H](NC(=O)c1nn(CCCC(C)F)c2ccccc12)C(C)(C)C (stereo partly drawn) : 2.53
CCCCCn1cc(C(=O)Oc2ccc3ncccc3c2)c2ccccc21 : 1.59

Give measured fold induction at 35 µM for every item shown.
1. CCCCCn1cc(C(=O)Nc2ccc3ccccc3c2)c2ccccc21
2. O=C(Oc1cccc2cnccc12)c1cn(CCCCCF)c2ccccc12
3. CC(C)[C@H](NC(=O)c1nn(CC2CCCCC2)c2ccccc12)C(N)=O
4. CCCCCn1cc(C(=O)c2ccc(OC)cc2)c2ccccc21

1: 1.1; 2: 2.4; 3: 2.75; 4: 2.27
